MEASURED ON: T1, HMGE F94Y (Pantoea stewartii subsp. stewartii, UniProt P54293 1-249, F94Y)
T1 sequence: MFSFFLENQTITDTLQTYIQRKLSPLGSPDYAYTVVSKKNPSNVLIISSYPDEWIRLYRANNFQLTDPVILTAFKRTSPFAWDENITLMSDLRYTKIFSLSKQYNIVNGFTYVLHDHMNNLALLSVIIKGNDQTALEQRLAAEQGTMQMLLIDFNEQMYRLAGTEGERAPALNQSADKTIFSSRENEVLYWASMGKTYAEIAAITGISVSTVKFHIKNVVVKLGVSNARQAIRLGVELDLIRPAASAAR
PROTOCOL SUMMARY: fluorescence anisotropy; no AHL; 150 mM NaCl, 6 mM HEPES, 17.5 mM Tris, 3% glycerol, pH 7.6, 25 C, 20 min; 3 nM T-esabox, 0-100 nM protein
CONDITION: protein: recombinant; tags: N-terminal His6-MBP-TEV-Gly5; chain copies: 2; label: 5' TAMRA on strand 1; blunt
ASSAY READOUT: Kd (nM)

>>> experimental_result("T-esabox (PesaR28 TAMRA/PesaR28R) (dsDNA) DNA 1: TCTTGCCTGTACTATAGTGCAGGTTAAG DNA 2: CTTAACCTGCACTATAGTACAGGCAAGA")
3.26

The measurements presented in this section are drawn from paper PMC4169570.
